Experiment: Human HepG2 cell viability assay in 384 well format
Format: toxicity, cell-based
Set-up: dose 125 nL, time 70.5 hour; concentration not given beside the values
Conditions: HepG2 cells, read-out: Inhibition
value.kind: cytotoxicity at 70.5 h (%)
Answers are plain numbers, in %.

Sample answers from the record:
compound	cytotoxicity at 70.5 h (%)
Cc1nc[nH]c1CN1CCc2nc3scc(C)c3c(=O)n2CC1	-1.43
Cc1oc(-c2ccoc2)nc1CN1CCC[C@H]1CO	-3.95
CC1CCCN(Cc2coc(-c3cccc(F)c3)n2)C1 (stereo unspecified)	-5.26
NC1(CN2CCOCC2)CCCCC1	-2.02
Cc1ccccc1OCC1CCCN(C(=O)Cc2c[nH]c(=O)[nH]c2=O)C1 (stereo unspecified)	-0.878

Count: 4. Required value per item: cytotoxicity at 70.5 h.
1. CC(C)c1cccc(CSc2nnc(Cn3cncn3)o2)n1
2. Cc1ccc(C(=O)NC2CCOc3ccccc32)cc1S(C)(=O)=O (stereo unspecified)
3. CCc1c(C)sc2c1c(N)nc(=O)n2CCN1CCOCC1
4. COc1ccsc1C(=O)N1CCCC(n2cncn2)C1 (stereo unspecified)

OUT:
[-7.35, 27.5, 9.55, -2.59]

Count: 4. Required value per item: cytotoxicity at 70.5 h.
1. CC(C)Cn1ccnc1CNC(=O)NC(C)(C)c1nccs1
2. CC(C)n1ncc2cc(NC(=O)N3CCC(CO)CC3)cnc21
3. CCCc1nn(Cc2csc(C(C)C)n2)c(=O)o1
4. FC(F)(F)c1ccc2nc([C@H]3CCN(C4CCC4)C3)[nH]c2c1

OUT:
1. 19.7
2. 3.41
3. -7.07
4. -7.81

Count: 5. Required value per item: cytotoxicity at 70.5 h.
1. O=C1NCCCc2[nH]c(C3CCN(C(=O)C4CC4)CC3)nc21
2. Cc1csc(CN2CCn3c(COc4cccnc4)cnc3C2C)n1 (stereo unspecified)
3. CNC(=O)CN1C(=O)CCC12CCCN(Cc1ccccc1F)C2 (stereo unspecified)
4. COCC(=O)N1Cc2nc3c(C)c(-c4cccs4)nn3c(O)c2C1
5. O=C(CN1CCCCC1Cn1cncn1)NCCC1=CCCCC1 (stereo unspecified)

OUT:
11.6
-9.58
6.16
-0.72
32

Count: 3. Required value per item: cytotoxicity at 70.5 h.
1. CCCc1nnc(NC(C)c2ccc(F)cc2)o1 (stereo unspecified)
2. CCC[C@@H]1CN(Cc2cc(OC)c3c(c2)OCO3)C[C@H]1C(=O)O
3. CCCc1nc(CN(CC)C(=O)c2ccc3[nH]cnc3c2)no1

OUT:
-8.69
-2.82
23.9

Count: 6. Required value per item: cytotoxicity at 70.5 h.
1. Cc1nn(C)cc1-c1ccnc(N2CCN(c3cnccn3)CC2)n1
2. Cc1cc(C)n(CC2CCCCN2C(=O)c2ccc3[nH]nnc3c2)n1 (stereo unspecified)
3. Cc1ncc2c(n1)CN(Cc1nc(-c3ccsc3)no1)CC2
4. O=C(Cc1cccc(F)c1)N1CCCCC1c1ccn2ccnc2n1 (stereo unspecified)
5. NC(=O)COc1ccc(C(=O)N2CCCC(n3ccnc3)C2)cc1 (stereo unspecified)
6. Cc1nnc2n1CCN(C(=O)c1ccc(Cn3cccc3)cc1)C2

OUT:
-0.227
-17.7
-21.5
29.6
-3
-7.82

Count: 4. Required value per item: cytotoxicity at 70.5 h.
1. Clc1cc(Cl)cc(CN2CCC(NCc3ncc[nH]3)CC2)c1
2. O=C(Nc1cccnc1)[C@H]1C[C@@H]2CCN(c3nncs3)C[C@H]2O1
3. CCc1ncc(C(=O)N(CCOC)Cc2nccs2)cn1
4. O=C(c1cc(=O)n(-c2ccccc2)[nH]1)N1CCCC(c2ccn[nH]2)C1 (stereo unspecified)

OUT:
1. -4.36
2. -1.35
3. 5.06
4. 48
